We begin with a simple list: items and their reported Half-life (dissociation from Raji cells), average.
- Target Under Test: T1, human CD20 (human, UniProt P11836 1-297)
- T1 construct: whole, on cells; also called human B-lymphocyte-restricted differentiation antigen; Bp35
- T1 sequence (looked up): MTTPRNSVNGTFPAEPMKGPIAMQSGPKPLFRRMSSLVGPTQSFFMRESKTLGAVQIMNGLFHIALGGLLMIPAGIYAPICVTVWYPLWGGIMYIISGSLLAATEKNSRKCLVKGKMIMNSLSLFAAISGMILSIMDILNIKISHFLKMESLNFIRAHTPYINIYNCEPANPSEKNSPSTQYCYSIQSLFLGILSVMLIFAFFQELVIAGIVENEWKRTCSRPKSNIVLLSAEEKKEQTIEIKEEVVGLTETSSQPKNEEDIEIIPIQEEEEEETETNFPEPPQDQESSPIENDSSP
- Procedure Text: dissociation of DyLight 488-labelled antibody from Raji cells at 37 C in excess unlabelled antibody, FACS MFI; average of Studies 1 and 2
- Parameters: unit not given here

INPUT: Quickly give me recorded Half-life (dissociation from Raji cells), average for 1F5RHA x 1F5RKF12 (antibody, human IgG1, kappa, V domains shown, also called RHA x RKF12; 1F5RKF12 x 1F5RHA) VH: QVQLVQSGAEVKKPGASVKVSCKASGYTFTSYNMHWVRQAPGQRLEWIGAIYPGNGDTSYNQKFKGRVTVTRDTSANTAYMELSSLKSEDTAVYYCARSHYGSNYVDYFDYWGQGTLVTVSS VL: EIVLTQSPGTLSLSPGERATLSCRASSSLSFMHWYQQKPGQAPRPLIYATSNLASGIPARFSGSGSGTDFTLTISRLEPEDFAVYFCHQWSSNPLTFGQGTKVELKR
OUTPUT: 66

INPUT: Name the recorded Half-life (dissociation from Raji cells), average of the binder listed here: 1F5RHA x 1F5RKB12 (antibody, human IgG1, kappa, V domains shown, also called RHA x RKB12; Variant F) VH: QVQLVQSGAEVKKPGASVKVSCKASGYTFTSYNMHWVRQAPGQRLEWIGAIYPGNGDTSYNQKFKGRVTVTRDTSANTAYMELSSLKSEDTAVYYCARSHYGSNYVDYFDYWGQGTLVTVSS VL: EIVLTQSPGTLSLSPGERATLSCRASSSLSFMHWYQQKPGQAPRPWIYATSNLASGIPARFSGSGSGTDYTLTISRLEPEDFAVYFCHQWSSNPLTFGQGTKVELKR
OUTPUT: 68

# input for lookup
INPUT: Retrieve Half-life (dissociation from Raji cells), average measured for rituximab (antibody, V domains shown) VH: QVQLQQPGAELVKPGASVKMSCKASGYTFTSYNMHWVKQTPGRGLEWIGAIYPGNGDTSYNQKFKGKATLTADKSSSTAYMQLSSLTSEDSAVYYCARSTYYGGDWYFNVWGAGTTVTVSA VL: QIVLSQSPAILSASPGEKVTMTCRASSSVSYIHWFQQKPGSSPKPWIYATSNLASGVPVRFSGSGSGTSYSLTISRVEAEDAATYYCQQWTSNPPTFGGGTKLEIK and print it.
OUTPUT: 24
